- targetOfAssay: SFRP-1 (Homo sapiens)
- assayName: Cell-based assay for in vitro measurement of SFRP-1/SARP2 antagonist activity (U2OS cells co-transfected with 16x TCF-tk-Luciferase reporter, Wnt and hSFRP-1)
- conditionContext: U2OS, read-out: Fold Induction with SFRP-1, Conc 15 μM; with SFRP-1; fold induction over SFRP-1 control, single dose
measurementType: fold induction at 15 µM
Numbers only.

A selection of reference data follows.
{"columns": ["molecule", "fold induction at 15 µM"],
 "data": [
  ["CNc1ccc(S(=O)(=O)c2ccc(C)c(S(=O)(=O)NCCCn3ccnc3)c2)cc1 [Example 310]", 2.9],
  ["CCOc1ccc(CCNS(=O)(=O)c2cccc(S(=O)(=O)c3ccccc3)c2)cc1 [Example 80]", 1],
  ["COCCNS(=O)(=O)c1cc(S(=O)(=O)c2ccc(F)cc2)ccc1C [Example 175]", 2.5],
  ["Cc1ccc(S(=O)(=O)c2cccc(C#N)c2)cc1S(=O)(=O)NCCc1ccccn1 [Example 409]", 2.2],
  ["Cc1ccc(S(=O)(=O)c2ccccc2)cc1S(=O)(=O)NCC(F)(F)F [Example 401]", 1.6]
]}

Each of the following entries comes with a recorded value; kindly state fold induction at 15 µM for each.
1. Cc1ccc(S(=O)(=O)c2ccc(C(C)(O)c3ccccc3)cc2)cc1S(=O)(=O)NCCc1ccccn1 (stereo not drawn) [Example 407]
2. CC(C)c1ccc(S(=O)(=O)c2ccc(F)cc2)cc1S(=O)(=O)NCCc1ccccn1 [Example 320]
3. Cc1ccc(S(=O)(=O)c2cccnc2)cc1S(=O)(=O)NCCc1ccccn1 [Example 426]
4. Cc1cc(C)c(S(=O)(=O)c2ccccc2)cc1S(=O)(=O)NCCn1ccnc1 [Example 324]
5. O=S(=O)(NCCc1cccc(F)c1)c1cccc(S(=O)(=O)c2ccccc2)c1 [Example 81]
6. Cc1ccc(S(=O)(=O)c2ccccc2)cc1S(=O)(=O)NCCc1c[nH]cn1 [Example 210]
7. CCN(CC)CCCNS(=O)(=O)c1cc(S(=O)(=O)c2ccccc2)ccc1OC [Example 241]
8. Cc1cc(S(=O)(=O)c2ccccc2)cc(S(=O)(=O)NCCn2ccnc2)c1C [Example 347]

A:
1: 1.2; 2: 2.8; 3: 1.3; 4: 3.2; 5: 1; 6: 2.5; 7: 1.8; 8: 2.9

====

For each of the molecules below, state its fold induction at 15 µM.
- targetOfAssay: SFRP-1 (Homo sapiens)
- Sequence (Q8N474 32-314): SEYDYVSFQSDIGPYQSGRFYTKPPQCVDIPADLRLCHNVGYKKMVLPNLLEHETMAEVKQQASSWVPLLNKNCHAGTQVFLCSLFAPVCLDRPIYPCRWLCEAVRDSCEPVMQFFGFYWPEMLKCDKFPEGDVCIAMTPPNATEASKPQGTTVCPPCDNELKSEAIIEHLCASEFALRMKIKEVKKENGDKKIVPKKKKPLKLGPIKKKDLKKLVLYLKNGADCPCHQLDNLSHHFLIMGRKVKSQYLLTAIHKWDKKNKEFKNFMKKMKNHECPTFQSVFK
- assayName: Cell-based assay for in vitro measurement of SFRP-1/SARP2 antagonist activity (U2OS cells co-transfected with 16x TCF-tk-Luciferase reporter, Wnt and hSFRP-1)
- conditionContext: U2OS, read-out: Fold Induction without SFRP-1, Conc 15 μM; single dose; luciferase reporter; cells without SFRP-1 (specificity control)

These solved cases illustrate the format of a correct answer.
{"columns": ["molecule", "targetOfAssay", "fold induction at 15 µM"],
 "data": [
  ["Cc1ccc(S(=O)(=O)c2ccccc2)cc1S(=O)(=O)NC1CCN(C(=O)c2ccc3ccccc3c2)CC1", "SFRP-1 (Homo sapiens)", 1],
  ["COC(=O)N1CCC(NS(=O)(=O)c2cc(S(=O)(=O)c3ccccc3)ccc2C)CC1", "SFRP-1 (Homo sapiens)", 0.9],
  ["CC(C)c1ccc(S(=O)(=O)c2cccc3cccnc23)cc1S(=O)(=O)NCCc1ccccn1", "SFRP-1 (Homo sapiens)", 1.1],
  ["CC(C)c1cc(C(C)C)c(S(=O)(=O)c2ccccc2)cc1S(=O)(=O)NC1Cc2ccccc2C1", "SFRP-1 (Homo sapiens)", 1.1],
  ["CC(C)c1ccc(S(=O)(=O)c2ccc(N3CCNCC3)cc2)cc1S(=O)(=O)NC1CCOCC1", "SFRP-1 (Homo sapiens)", 1.1],
  ["CCCc1ccc(S(=O)(=O)c2ccccc2)cc1S(N)(=O)=O", "SFRP-1 (Homo sapiens)", 1.2],
  ["CC(C)c1ccc(S(=O)(=O)c2ccc(F)cc2)cc1S(=O)(=O)NCCc1ccc[n+]([O-])c1", "SFRP-1 (Homo sapiens)", 1],
  ["CC(C)c1ccc(S(=O)(=O)c2ccc(F)cc2)cc1S(=O)(=O)NC1CC1", "SFRP-1 (Homo sapiens)", 1]
]}

Below are 2 molecules. Give each one its fold induction at 15 µM.
1. Cc1c(Cl)cccc1S(=O)(=O)c1ccc(C(C)C)c(S(=O)(=O)NC2CCOCC2)c1
2. Cc1c(C#N)cccc1S(=O)(=O)c1ccc(C(C)C)c(S(=O)(=O)NCCc2ccccn2)c1

A:
1: 1.1; 2: 1.1

Fill in fold induction at 15 µM for each of the 6 molecules listed.
1. Cc1c(Br)cccc1S(=O)(=O)c1ccc(C(C)C)c(S(=O)(=O)NCCc2ccccn2)c1
2. CC(C)c1ccc(S(=O)(=O)c2ccc(F)cc2)cc1S(=O)(=O)NCCn1ccnc1C(C)C
3. CC(C)c1cc(C(C)C)c(S(=O)(=O)c2ccc(F)cc2)cc1S(=O)(=O)NC1Cc2ccccc2C1
4. COc1cccc(S(=O)(=O)c2ccc(C(C)C)c(S(=O)(=O)NC3CCOCC3)c2)c1
5. Cc1c(S(=O)(=O)NCCCn2ccnc2)cccc1S(=O)(=O)c1ccccc1
6. Cn1ccc2cc(S(=O)(=O)c3ccc(Cl)c(S(=O)(=O)NC4CCOCC4)c3)ccc21

A:
1: 1.2; 2: 1.7; 3: 1; 4: 1.4; 5: 1.1; 6: 1.1

Quick batch: fold induction at 15 µM for everything below.
1. CCCc1ccc(S(=O)(=O)c2ccccc2)cc1S(=O)(=O)NC1CCCC1
2. COCC(=O)N1CCC(NS(=O)(=O)c2cc(S(=O)(=O)c3ccc(F)cc3)ccc2C)CC1
3. O=S(=O)(NCCc1ccccc1)c1cc(S(=O)(=O)c2ccccc2)ccc1C(F)(F)F
4. Cc1ccc(S(=O)(=O)c2ccccc2)cc1S(=O)(=O)NC1CCN(C(=O)c2ccc(N(C)C)cc2)CC1
5. CC(C)c1cc(C(C)C)c(S(=O)(=O)c2ccccc2)cc1S(=O)(=O)NCCc1cccnc1
6. Cc1ccc(C)n1CC1CCN(S(=O)(=O)c2cc(S(=O)(=O)c3ccccc3)ccc2Cl)CC1

A:
1.1
1.3
1.2
1
1
1

// for each molecule below, give its fold induction at 15 µM
1. CC(C)c1ccc(S(=O)(=O)c2ccc(F)cc2)cc1S(=O)(=O)NC1CCN(Cc2ccccc2)CC1
2. CC(C)c1ccc(S(=O)(=O)c2ccc(N(C)CCC#N)cc2)cc1S(=O)(=O)NC1CCOCC1
3. O=S(=O)(NCCc1ccccn1)c1cc(S(=O)(=O)c2ccccc2)ccc1C(F)(F)F
4. Cc1ccc(S(=O)(=O)c2ccccc2)cc1S(=O)(=O)NC1CCN(C(=O)CN(C)C)CC1

A:
1.1
1.3
1.2
1.1

====

- targetOfAssay: SFRP-1 (Homo sapiens, UniProt Q8N474)
- assayName: Cell-based assay for in vitro measurement of SFRP-1/SARP2 antagonist activity (U2OS cells co-transfected with 16x TCF-tk-Luciferase reporter, Wnt and hSFRP-1)
Assign pEC50 to each entry below.
Answers are plain numbers, as −log10 of the molar value.

{"columns": ["compound", "pEC50"],
 "data": [
  ["CN(CCNS(=O)(=O)c1cc(S(=O)(=O)c2ccccc2)ccc1C(F)(F)F)C(=O)NC1CCN(C(=O)CCC(=O)O)CC1 [Example 980]", 6.07],
  ["O=S(=O)(NC1CCOCC1)c1cc(S(=O)(=O)c2cccc(O)c2)ccc1C(F)(F)F [Example 744]", 6.07],
  ["CN(CCNS(=O)(=O)c1cc(S(=O)(=O)c2ccccc2)ccc1C(F)(F)F)C(=O)Oc1ccc(F)cc1 [Example 872]", 5.71]
]}

Okay, now this compound:
Q: Recall the recorded pEC50 for CC(C)c1ccc(S(=O)(=O)c2ccc(F)cc2)cc1S(=O)(=O)NC1CCN(C(=S)NCCN2CCOCC2)CC1 [Example 698] with SFRP-1 (Homo sapiens, UniProt Q8N474) and state it.
A: 6.22

====

- targetOfAssay: UniProt:Q8N474
- Sequence (Q8N474 32-314): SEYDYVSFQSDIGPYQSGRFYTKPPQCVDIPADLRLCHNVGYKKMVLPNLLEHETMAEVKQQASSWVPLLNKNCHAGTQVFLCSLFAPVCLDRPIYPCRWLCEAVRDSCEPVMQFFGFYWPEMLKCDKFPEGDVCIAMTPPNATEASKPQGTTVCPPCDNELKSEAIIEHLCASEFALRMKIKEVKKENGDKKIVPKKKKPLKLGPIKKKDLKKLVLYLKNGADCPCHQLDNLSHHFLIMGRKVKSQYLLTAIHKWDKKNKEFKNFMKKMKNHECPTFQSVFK
- assayName: Cell-based assay for in vitro measurement of SFRP-1/SARP2 antagonist activity (U2OS cells co-transfected with 16x TCF-tk-Luciferase reporter, Wnt and hSFRP-1);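 also: U2OS cells co-transfected with a TCF-tk luciferase reporter, a Wnt vector, hSFRP-1 or empty vector and CMV-βgal, luciferase luminescence read in cell lysates alongside βgal activity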
- conditionContext: U2OS, read-out: Fold Induction without SFRP-1, Conc 15 μM; without SFRP-1, single dose
measurementType: fold induction at 15 µM
Answers are plain numbers.

# example entries with known answers
{"columns": ["molecule", "fold induction at 15 µM"],
 "data": [
  ["Cc1ccc(S(=O)(=O)c2ccc(F)cc2)cc1S(=O)(=O)NCCN1CCOCC1", 0.9],
  ["Cc1cc(C)c(S(=O)(=O)c2ccc(F)cc2)cc1S(=O)(=O)NCCn1ccnc1", 0.9],
  ["CNc1ccc(S(=O)(=O)c2ccc(C(C)C)c(S(=O)(=O)NCCn3ccnc3)c2)cc1", 1.1],
  ["CC(C)c1ccc(S(=O)(=O)c2ccc(F)cc2)cc1S(=O)(=O)NCC1CCOCC1", 1.2],
  ["Cc1cc(C)c(S(=O)(=O)c2ccccc2)cc1S(=O)(=O)NCC(O)c1ccccc1 (stereo not drawn)", 1.1]
]}

Fill in fold induction at 15 µM for each of the 8 molecules listed.
1. COc1ccc(S(=O)(=O)c2ccccc2)cc1S(=O)(=O)NCCc1ccc(S(N)(=O)=O)cc1
2. CCOc1cc(CCNS(=O)(=O)c2cccc(S(=O)(=O)c3ccccc3)c2)ccc1OC
3. CCc1ccc(S(=O)(=O)c2ccccc2)cc1S(=O)(=O)NCCc1c[nH]cn1
4. CNc1ccc(S(=O)(=O)c2ccc(C(C)C)c(S(=O)(=O)NC3CCOCC3)c2)cc1
5. COc1ccc(S(=O)(=O)c2ccccc2)cc1S(=O)(=O)NCCc1ccccc1
6. CCN(CC)CCCNS(=O)(=O)c1cc(S(=O)(=O)c2ccc(F)cc2)ccc1C
7. CC(C)c1ccc(S(=O)(=O)c2ccc(C(C)(C)C)cc2)cc1S(=O)(=O)NC1CCOCC1
8. Cc1ccc(S(=O)(=O)c2ccccc2)cc1S(=O)(=O)NCC(C)(C)C

A:
1: 1.3; 2: 1.2; 3: 0.9; 4: 1; 5: 1.2; 6: 1.3; 7: 1; 8: 1
